test system: 885512-296-R-J2-PDC complex spheroid viability; assay: Anticancer human tumor 885512-296-R-J2-PDC patient-derived breast carcinoma cell line growth inhibition [GQUAD]; details: second compound 10 µM; first compound 10 µM; hits give low values
MEASURED_PROPERTY: viability, T/C

Nc1ccn(C2OC(CO)C(O)C2(F)F)c(=O)n1 (stereo not given) + CN(C)c1ccc(Nc2c3ccc(NC(=O)CCN4CCCC4)cc3nc3cc(NC(=O)CCN4CCCC4)ccc23)cc1 ... 1.39%
CC1COCCN1c1cc(C2(S(C)(=N)=O)CC2)nc(-c2ccnc3[nH]ccc23)n1 (stereo not given) + Cc1[nH]c2ccc(F)cc2c1-c1nc2c3cccnc3c3ncccc3c2[nH]1 ... 1.43%
CC(=O)O[C@H]1C(=O)[C@@]2(C)[C@H]([C@H](OC(=O)c3ccccc3)[C@]3(O)C[C@H](OC(=O)[C@H](O)[C@@H](NC(=O)c4ccccc4)c4ccccc4)C(C)=C1C3(C)C)[C@]1(OC(C)=O)CO[C@@H]1C[C@@H]2O + Cc1cnc(CNC(=O)c2c(=O)c3ccc(N4CCCN(C)CC4)nc3n3c2sc2ccccc23)cn1 ... 0.16%
CCCS(=O)(=O)Nc1ccc(F)c(C(=O)c2c[nH]c3ncc(-c4ccc(Cl)cc4)cc23)c1F + Cc1cnc(CNC(=O)c2c(=O)c3ccc(N4CCCN(C)CC4)nc3n3c2sc2ccccc23)cn1 ... 0.18%
C#Cc1c(F)ccc2cc(O)cc(-c3ncc4c(N5CC6CCC(C5)N6)nc(OCC56CCCN5CC(F)C6)nc4c3F)c12 (stereo not given) + CN(C)c1ccc(Nc2c3ccc(NC(=O)CCN4CCCC4)cc3nc3cc(NC(=O)CCN4CCCC4)ccc23)cc1 ... 1.6%
C#Cc1c(F)ccc2cc(O)cc(-c3ncc4c(N5CC6CCC(C5)N6)nc(OCC56CCCN5CC(F)C6)nc4c3F)c12 (stereo not given) + Cc1[nH]c2ccc(F)cc2c1-c1nc2c3cccnc3c3ncccc3c2[nH]1 ... 0.41%
CC(C)n1c(=O)n(C)c2cnc3cc(F)c(-c4ccc(OCCCN5CCCCC5)nc4)cc3c21 + Cc1cnc(CNC(=O)c2c(=O)c3ccc(N4CCCN(C)CC4)nc3n3c2sc2ccccc23)cn1 ... 0.16%
O=C(c1cc(Cc2n[nH]c(=O)c3ccccc23)ccc1F)N1CCN(C(=O)C2CC2)CC1 + CN(C)c1ccc(Nc2c3ccc(NC(=O)CCN4CCCC4)cc3nc3cc(NC(=O)CCN4CCCC4)ccc23)cc1 ... 15.8%
CC1COCCN1c1cc(C2(O)CC3CCC(C2)O3)c2cnn(-c3ccn[nH]3)c2n1 (stereo not given) + Cc1[nH]c2ccc(F)cc2c1-c1nc2c3cccnc3c3ncccc3c2[nH]1 ... 3.55%
CC1COCCN1c1cc(-c2ccnn2C)c2ccnc(-c3ccn[nH]3)c2n1 (stereo not given) + Cc1[nH]c2ccc(F)cc2c1-c1nc2c3cccnc3c3ncccc3c2[nH]1 ... 4.02%

----------
system: 885512-296-R-J2-PDC complex spheroid viability; assay: Anticancer human tumor 885512-296-R-J2-PDC cell line growth inhibition [GQUAD]; conditions: second compound 0.0316 µM; first compound 3.16 µM; active means viability on the fitted dose curve at most 10% of control; inactive means the rest;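 note: spheroids exposed to the compounds for one week; percent of tumor spheroid viability relative to DMSO vehicle control wells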
Labels: yes = active, no = inactive

CC(=O)O[C@H]1C(=O)[C@@]2(C)[C@H]([C@H](OC(=O)c3ccccc3)[C@]3(O)C[C@H](OC(=O)[C@H](O)[C@@H](NC(=O)c4ccccc4)c4ccccc4)C(C)=C1C3(C)C)[C@]1(OC(C)=O)CO[C@@H]1C[C@@H]2O + CN(C)c1ccc(Nc2c3ccc(NC(=O)CCN4CCCC4)cc3nc3cc(NC(=O)CCN4CCCC4)ccc23)cc1 ... yes
Cc1cccc(N(C)C(=O)C2C(O)CCN2c2nc(C)cc(C(F)(F)F)c2C#N)c1 (stereo not given) + Cc1cnc(CNC(=O)c2c(=O)c3ccc(N4CCCN(C)CC4)nc3n3c2sc2ccccc23)cn1 ... no
C=CC(=O)N1CCN(c2nc(=O)n(-c3c(C)ccnc3C(C)C)c3nc(-c4c(O)cccc4F)c(F)cc23)C(C)C1 (stereo not given) + Cc1cnc(CNC(=O)c2c(=O)c3ccc(N4CCCN(C)CC4)nc3n3c2sc2ccccc23)cn1 ... no
Nc1ccn(C2OC(CO)C(O)C2(F)F)c(=O)n1 (stereo not given) + Cc1[nH]c2ccc(F)cc2c1-c1nc2c3cccnc3c3ncccc3c2[nH]1 ... yes
Cc1cccc(N(C)C(=O)C2C(O)CCN2c2nc(C)cc(C(F)(F)F)c2C#N)c1 (stereo not given) + CN(C)c1ccc(Nc2c3ccc(NC(=O)CCN4CCCC4)cc3nc3cc(NC(=O)CCN4CCCC4)ccc23)cc1 ... no
CC1COCCN1c1cc(C2(O)CC3CCC(C2)O3)c2cnn(-c3ccn[nH]3)c2n1 (stereo not given) + CN(C)c1ccc(Nc2c3ccc(NC(=O)CCN4CCCC4)cc3nc3cc(NC(=O)CCN4CCCC4)ccc23)cc1 ... yes
O=C(NO)c1cnc(N2CCN(S(=O)(=O)c3ccc4ccccc4c3)CC2)nc1 + CN(C)c1ccc(Nc2c3ccc(NC(=O)CCN4CCCC4)cc3nc3cc(NC(=O)CCN4CCCC4)ccc23)cc1 ... yes
Cc1cccc(N(C)C(=O)C2C(O)CCN2c2nc(C)cc(C(F)(F)F)c2C#N)c1 (stereo not given) + Cc1[nH]c2ccc(F)cc2c1-c1nc2c3cccnc3c3ncccc3c2[nH]1 ... no
CC(C)n1c(=O)n(C)c2cnc3cc(F)c(-c4ccc(OCCCN5CCCCC5)nc4)cc3c21 + CN(C)c1ccc(Nc2c3ccc(NC(=O)CCN4CCCC4)cc3nc3cc(NC(=O)CCN4CCCC4)ccc23)cc1 ... no
CC(C)n1c(=O)n(C)c2cnc3cc(F)c(-c4ccc(OCCCN5CCCCC5)nc4)cc3c21 + Cc1cnc(CNC(=O)c2c(=O)c3ccc(N4CCCN(C)CC4)nc3n3c2sc2ccccc23)cn1 ... no
CC(C)n1c(=O)n(C)c2cnc3cc(F)c(-c4ccc(OCCCN5CCCCC5)nc4)cc3c21 + Cc1[nH]c2ccc(F)cc2c1-c1nc2c3cccnc3c3ncccc3c2[nH]1 ... no
C=CC(=O)N1CCN(c2nc(=O)n(-c3c(C)ccnc3C(C)C)c3nc(-c4c(O)cccc4F)c(F)cc23)C(C)C1 (stereo not given) + Cc1[nH]c2ccc(F)cc2c1-c1nc2c3cccnc3c3ncccc3c2[nH]1 ... no
COc1cc(C2c3cc4c(cc3C(OC3OC5COC(C)OC5C(O)C3O)C3COC(=O)C23)OCO4)cc(OC)c1O (stereo not given) + Cc1[nH]c2ccc(F)cc2c1-c1nc2c3cccnc3c3ncccc3c2[nH]1 ... no
C#Cc1c(F)ccc2cc(O)cc(-c3ncc4c(N5CC6CCC(C5)N6)nc(OCC56CCCN5CC(F)C6)nc4c3F)c12 (stereo not given) + CN(C)c1ccc(Nc2c3ccc(NC(=O)CCN4CCCC4)cc3nc3cc(NC(=O)CCN4CCCC4)ccc23)cc1 ... no
CC1COCCN1c1cc(C2(S(C)(=N)=O)CC2)nc(-c2ccnc3[nH]ccc23)n1 (stereo not given) + CN(C)c1ccc(Nc2c3ccc(NC(=O)CCN4CCCC4)cc3nc3cc(NC(=O)CCN4CCCC4)ccc23)cc1 ... yes
CC1COCCN1c1cc(C2(S(C)(=N)=O)CC2)nc(-c2ccnc3[nH]ccc23)n1 (stereo not given) + Cc1cnc(CNC(=O)c2c(=O)c3ccc(N4CCCN(C)CC4)nc3n3c2sc2ccccc23)cn1 ... yes
COc1cc(C2c3cc4c(cc3C(OC3OC5COC(C)OC5C(O)C3O)C3COC(=O)C23)OCO4)cc(OC)c1O (stereo not given) + Cc1cnc(CNC(=O)c2c(=O)c3ccc(N4CCCN(C)CC4)nc3n3c2sc2ccccc23)cn1 ... no
O=c1[nH]cc(F)c(=O)[nH]1 + Cc1cnc(CNC(=O)c2c(=O)c3ccc(N4CCCN(C)CC4)nc3n3c2sc2ccccc23)cn1 ... no
O=C(c1cc(Cc2n[nH]c(=O)c3ccccc23)ccc1F)N1CCN(C(=O)C2CC2)CC1 + Cc1cnc(CNC(=O)c2c(=O)c3ccc(N4CCCN(C)CC4)nc3n3c2sc2ccccc23)cn1 ... no
CC1COCCN1c1cc(C2(S(C)(=N)=O)CC2)nc(-c2ccnc3[nH]ccc23)n1 (stereo not given) + Cc1[nH]c2ccc(F)cc2c1-c1nc2c3cccnc3c3ncccc3c2[nH]1 ... no

----------
system: 885512-296-R-J2-PDC complex spheroid viability; test: Anticancer human tumor 885512-296-R-J2-PDC cell line growth inhibition [GQUAD]; details: second compound 10 µM; first compound 1 µM; hits give low values;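 note: spheroids exposed to the compounds for one week; percent of tumor spheroid viability relative to DMSO vehicle control wells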
Criterion: viability, T/C strictly under 2%. Met: fulfilled. Not met: not fulfilled.

C#Cc1c(F)ccc2cc(O)cc(-c3ncc4c(N5CC6CCC(C5)N6)nc(OCC56CCCN5CC(F)C6)nc4c3F)c12 (stereo not given) + Cc1[nH]c2ccc(F)cc2c1-c1nc2c3cccnc3c3ncccc3c2[nH]1 ... fulfilled
O=C(c1cc(Cc2n[nH]c(=O)c3ccccc23)ccc1F)N1CCN(C(=O)C2CC2)CC1 + CN(C)c1ccc(Nc2c3ccc(NC(=O)CCN4CCCC4)cc3nc3cc(NC(=O)CCN4CCCC4)ccc23)cc1 ... not fulfilled
CCCS(=O)(=O)Nc1ccc(F)c(C(=O)c2c[nH]c3ncc(-c4ccc(Cl)cc4)cc23)c1F + CN(C)c1ccc(Nc2c3ccc(NC(=O)CCN4CCCC4)cc3nc3cc(NC(=O)CCN4CCCC4)ccc23)cc1 ... not fulfilled
COc1cc(C2c3cc4c(cc3C(OC3OC5COC(C)OC5C(O)C3O)C3COC(=O)C23)OCO4)cc(OC)c1O (stereo not given) + CN(C)c1ccc(Nc2c3ccc(NC(=O)CCN4CCCC4)cc3nc3cc(NC(=O)CCN4CCCC4)ccc23)cc1 ... not fulfilled
COc1cc(C2c3cc4c(cc3C(OC3OC5COC(C)OC5C(O)C3O)C3COC(=O)C23)OCO4)cc(OC)c1O (stereo not given) + Cc1[nH]c2ccc(F)cc2c1-c1nc2c3cccnc3c3ncccc3c2[nH]1 ... fulfilled
C=CC(=O)N1CCN(c2nc(=O)n(-c3c(C)ccnc3C(C)C)c3nc(-c4c(O)cccc4F)c(F)cc23)C(C)C1 (stereo not given) + Cc1[nH]c2ccc(F)cc2c1-c1nc2c3cccnc3c3ncccc3c2[nH]1 ... not fulfilled
O=c1[nH]cc(F)c(=O)[nH]1 + CN(C)c1ccc(Nc2c3ccc(NC(=O)CCN4CCCC4)cc3nc3cc(NC(=O)CCN4CCCC4)ccc23)cc1 ... not fulfilled
CCCS(=O)(=O)Nc1ccc(F)c(C(=O)c2c[nH]c3ncc(-c4ccc(Cl)cc4)cc23)c1F + Cc1[nH]c2ccc(F)cc2c1-c1nc2c3cccnc3c3ncccc3c2[nH]1 ... fulfilled
CC(C)(O)C1CCC(Nc2ccc3ncc(-c4cccc(C(F)(F)F)c4)n3n2)CC1 (stereo not given) + CN(C)c1ccc(Nc2c3ccc(NC(=O)CCN4CCCC4)cc3nc3cc(NC(=O)CCN4CCCC4)ccc23)cc1 ... not fulfilled
COc1ccc([C@@H](O)c2cc(-c3ncnc4cc(N5CCOCC5)ccc34)c(F)cc2Cl)nn1 + Cc1cnc(CNC(=O)c2c(=O)c3ccc(N4CCCN(C)CC4)nc3n3c2sc2ccccc23)cn1 ... fulfilled
